# Tested on: Polyunsaturated fatty acid 5-lipoxygenase (Homo sapiens) (UniProt P09917)
# Test summary: Inhibition of 5-LO in A23187-stimulated human intact neutrophils assessed as reduction in LTB4/5-HETE formation by measuring residual activity at 10 uM measured after 20 mins by RP-HPLC method
# Type: tissue-based
# Condition set: Neutrophil
The label depends only on Activity: YES if it is at least 80%, NO if it is smaller.

| Molecule | Assigned class |
| --- | --- |
| OCc1ccc(Cc2nc(-c3ccc(-c4ccsc4)cc3)no2)cc1 | NO |

Asked: Could you tell me if the measured Activity of "Oc1c(F)c(F)cc(-c2nc(-c3ccc(-c4ccsc4)cc3)no2)c1F" reaches 80% or more?
Given back: NO

Asked: Can "Nc1ccc(O)c(-c2nc(-c3ccc(-c4ccsc4)cc3)no2)c1" be said to have Activity at or above 80%?
Given back: YES

Asked: Determine whether measured Activity meets or exceeds 80% for "N[C@@H](Cc1ccc(O)cc1)c1nc(-c2ccc(-c3ccsc3)cc2)no1"
Given back: YES

Asked: Check this molecule for Activity at or above 80%: CC(c1ccc(O)cc1)c1nc(-c2ccc(-c3ccsc3)cc2)no1 (stereo unspecified)
Given back: NO

---

# Tested on: Polyunsaturated fatty acid 5-lipoxygenase (Homo sapiens)
# Sequence (whole entry): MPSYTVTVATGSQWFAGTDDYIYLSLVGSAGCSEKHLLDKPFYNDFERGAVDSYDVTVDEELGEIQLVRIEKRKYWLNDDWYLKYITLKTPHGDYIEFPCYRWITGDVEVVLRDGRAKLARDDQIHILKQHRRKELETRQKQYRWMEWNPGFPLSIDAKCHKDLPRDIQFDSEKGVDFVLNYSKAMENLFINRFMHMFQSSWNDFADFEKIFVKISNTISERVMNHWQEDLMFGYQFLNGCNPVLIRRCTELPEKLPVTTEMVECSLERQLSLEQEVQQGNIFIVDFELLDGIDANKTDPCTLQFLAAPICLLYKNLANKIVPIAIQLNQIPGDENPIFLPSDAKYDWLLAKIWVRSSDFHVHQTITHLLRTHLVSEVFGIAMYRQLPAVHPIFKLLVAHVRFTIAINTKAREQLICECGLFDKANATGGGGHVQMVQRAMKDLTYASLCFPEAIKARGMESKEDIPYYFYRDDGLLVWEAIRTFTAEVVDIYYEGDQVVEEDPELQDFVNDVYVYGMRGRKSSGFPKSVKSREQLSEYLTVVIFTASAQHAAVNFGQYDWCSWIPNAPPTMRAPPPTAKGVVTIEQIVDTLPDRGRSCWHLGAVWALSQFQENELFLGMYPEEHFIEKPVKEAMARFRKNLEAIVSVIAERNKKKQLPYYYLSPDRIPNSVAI
# Test summary: Inhibition of 5-LO in A23187-stimulated human intact neutrophils assessed as reduction in LTB4/5-HETE formation by measuring residual activity at 10 uM measured after 20 mins by RP-HPLC method
# Type: tissue-based
# Condition set: Neutrophil
Known Activity of a selection of compounds
Lab book: enter the figure in %, no units written.

Consider the worked cases shown below.
| Cpd smiles | Tested on | Activity, % |
| --- | --- | --- |
| c1cc(-c2nc(-c3ccc(-c4ccsc4)cc3)no2)c2cc[nH]c2c1 | Polyunsaturated fatty acid 5-lipoxygenase (Homo sapiens) | 59.7 |
| Oc1cccc(CCc2nc(-c3ccc(-c4ccsc4)cc3)no2)c1 | Polyunsaturated fatty acid 5-lipoxygenase (Homo sapiens) | 19.9 |
| CC(=O)N1C[C@H](O)C[C@H]1c1nc(-c2ccc(-c3ccsc3)cc2)no1 | Polyunsaturated fatty acid 5-lipoxygenase (Homo sapiens) | 92.6 |

Lab note: next compound to report on.
Asked: Quick one: give measured Activity for "N[C@H](c1ccc(O)cc1)c1nc(-c2ccc(-c3ccsc3)cc2)no1"
Given back: 47.5

---

// values below are reported Activity
# Tested on: UniProt O14684
# Sequence (O14684 whole entry): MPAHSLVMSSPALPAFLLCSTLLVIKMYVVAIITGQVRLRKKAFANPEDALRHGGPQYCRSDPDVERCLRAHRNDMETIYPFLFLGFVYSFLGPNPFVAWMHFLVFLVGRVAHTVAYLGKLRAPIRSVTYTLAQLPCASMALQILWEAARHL
# Test summary: Inhibition of mPGES-1 obtained from IL-beta stimulated human A549 cells microsomes assessed as residual activity by measuring conversion of PGH2 to PGE2 at 10 uM by cell-free RP-HPLC method
# Condition set: Microsome

| Compound | Activity |
| --- | --- |
| CC(N)(Cc1ccc(O)cc1)c1nc(-c2ccc(-c3ccsc3)cc2)no1 (stereo not given) | 84.7% |
| CC(=O)N1C[C@H](O)C[C@H]1c1nc(-c2ccc(-c3ccsc3)cc2)no1 | 82.2% |
| OCc1ccc(Cc2nc(-c3ccc(-c4ccsc4)cc3)no2)cc1 | 93.1% |
| c1cc(-c2nc(-c3ccc(-c4ccsc4)cc3)no2)c2cc[nH]c2c1 | 63.2% |

Continue with the next compound.
Asked: Write down Activity measured for item CC(c1ccc(O)cc1)c1nc(-c2ccc(-c3ccsc3)cc2)no1 (stereo not given)
Given back: 62.9%

The origin of these recorded values is ChEMBL document CHEMBL4840316.
